Catalogue of Drug uptake values
# Tested on: Spleen
# experiment: Biodistribution in ICR mouse spleen at 5 to 10 uCi, iv after 2 hrs
# Assay type: ADME, organism-based
# experimental conditions: in vivo

| smiles record | Drug uptake |
| --- | --- |
| CN(C)c1ccc(/C=C/c2cnc(OCCOCCOCCF)c([125I])c2)cc1 | 0.79 % ID/g |
| CNc1ccc(/C=C/c2cnc(OCCOCCOCCF)c([125I])c2)cc1 | 1.27 % ID/g |
| CNc1ccc(/C=C/c2cnc(OCCO)c([125I])c2)cc1 | 1.08 % ID/g |
| OCCOc1ncc(/C=C/c2ccc(O)cc2)cc1[125I] | 0.5 % ID/g |
| CN(C)c1ccc(/C=C/c2cnc(OCCO)c([125I])c2)cc1 | 0.8 % ID/g |

====

# System: Liver
# experiment: Biodistribution in ICR mouse liver at 5 to 10 uCi, iv after 2 mins
# Type: ADME, organism-based
# experimental conditions: in vivo
Each entry gets Not met if its Drug uptake stays under 20 % ID/g, and Met if its Drug uptake is 20 % ID/g or above.

| smiles record | cat |
| --- | --- |
| CNc1ccc(/C=C/c2cnc(OCCOCCOCCF)c([125I])c2)cc1 | Met |
| CN(C)c1ccc(/C=C/c2cnc(OCCOCCOCCF)c([125I])c2)cc1 | Met |
| CN(C)c1ccc(/C=C/c2cnc(OCCO)c([125I])c2)cc1 | Not met |
| OCCOc1ncc(/C=C/c2ccc(O)cc2)cc1[125I] | Not met |
| CNc1ccc(/C=C/c2cnc(OCCO)c([125I])c2)cc1 | Met |

====

# Tested on: Lung
# experiment: Biodistribution in ICR mouse lung at 5 to 10 uCi, iv after 1 hr
# Assay type: ADME, organism-based
# experimental conditions: in vivo

| smiles record | Drug uptake [% ID/g] |
| --- | --- |
| OCCOc1ncc(/C=C/c2ccc(O)cc2)cc1[125I] | 1.34 |
| CNc1ccc(/C=C/c2cnc(OCCO)c([125I])c2)cc1 | 1.76 |
| CN(C)c1ccc(/C=C/c2cnc(OCCO)c([125I])c2)cc1 | 1.98 |
| CN(C)c1ccc(/C=C/c2cnc(OCCOCCOCCF)c([125I])c2)cc1 | 1.62 |
| CNc1ccc(/C=C/c2cnc(OCCOCCOCCF)c([125I])c2)cc1 | 2.37 |

====

Catalogue of Drug uptake values
# Tested on: Lung
# experiment: Biodistribution in ICR mouse lung at 5 to 10 uCi, iv after 2 hrs
# Assay type: ADME, organism-based
# experimental conditions: in vivo

| smiles record | Drug uptake [% ID/g] |
| --- | --- |
| CN(C)c1ccc(/C=C/c2cnc(OCCOCCOCCF)c([125I])c2)cc1 | 1.33 |
| CNc1ccc(/C=C/c2cnc(OCCOCCOCCF)c([125I])c2)cc1 | 1.85 |
| CN(C)c1ccc(/C=C/c2cnc(OCCO)c([125I])c2)cc1 | 1 |
| OCCOc1ncc(/C=C/c2ccc(O)cc2)cc1[125I] | 1.02 |
| CNc1ccc(/C=C/c2cnc(OCCO)c([125I])c2)cc1 | 1.58 |

====

# Tested on: Blood
# experiment: Biodistribution in ICR mouse blood at 5 to 10 uCi, iv after 1 hr
# Type: ADME, organism-based
# experimental conditions: in vivo
Classify: Criterion met when Drug uptake is strictly less than 2 % ID/g; Criterion not met when Drug uptake is not.

| smiles record | cat |
| --- | --- |
| CNc1ccc(/C=C/c2cnc(OCCO)c([125I])c2)cc1 | Criterion met |
| CN(C)c1ccc(/C=C/c2cnc(OCCO)c([125I])c2)cc1 | Criterion not met |
| CN(C)c1ccc(/C=C/c2cnc(OCCOCCOCCF)c([125I])c2)cc1 | Criterion met |
| OCCOc1ncc(/C=C/c2ccc(O)cc2)cc1[125I] | Criterion met |
| CNc1ccc(/C=C/c2cnc(OCCOCCOCCF)c([125I])c2)cc1 | Criterion not met |

====

# System: Brain
# experiment: Biodistribution in ICR mouse brain at 5 to 10 uCi, iv after 1 hr
# Format: ADME, organism-based
# experimental conditions: in vivo
Catalogue of Drug uptake values
measured quantity: Drug uptake (% ID/g)

| smiles record | unit abbreviation | result |
| --- | --- | --- |
| CN(C)c1ccc(/C=C/c2cnc(OCCOCCOCCF)c([125I])c2)cc1 | % ID/g | 0.68 |
| CN(C)c1ccc(/C=C/c2cnc(OCCO)c([125I])c2)cc1 | % ID/g | 1.32 |
| CNc1ccc(/C=C/c2cnc(OCCO)c([125I])c2)cc1 | % ID/g | 0.26 |
| CNc1ccc(/C=C/c2cnc(OCCOCCOCCF)c([125I])c2)cc1 | % ID/g | 0.62 |
| OCCOc1ncc(/C=C/c2ccc(O)cc2)cc1[125I] | % ID/g | 0.09 |

====

# System: Muscle tissue
# experiment: Biodistribution in ICR mouse muscle at 5 to 10 uCi, iv after 2 mins
# Type: ADME, organism-based
# experimental conditions: in vivo
Classify: Condition met when Drug uptake is strictly less than 1 % ID/g; Condition not met when Drug uptake is not.

| smiles record | cat |
| --- | --- |
| CN(C)c1ccc(/C=C/c2cnc(OCCOCCOCCF)c([125I])c2)cc1 | Condition met |
| CN(C)c1ccc(/C=C/c2cnc(OCCO)c([125I])c2)cc1 | Condition met |
| CNc1ccc(/C=C/c2cnc(OCCOCCOCCF)c([125I])c2)cc1 | Condition not met |
| CNc1ccc(/C=C/c2cnc(OCCO)c([125I])c2)cc1 | Condition not met |

====

# target of assay: Amyloid-beta precursor protein (Homo sapiens, UniProt P05067)
# Sequence (P05067 whole entry): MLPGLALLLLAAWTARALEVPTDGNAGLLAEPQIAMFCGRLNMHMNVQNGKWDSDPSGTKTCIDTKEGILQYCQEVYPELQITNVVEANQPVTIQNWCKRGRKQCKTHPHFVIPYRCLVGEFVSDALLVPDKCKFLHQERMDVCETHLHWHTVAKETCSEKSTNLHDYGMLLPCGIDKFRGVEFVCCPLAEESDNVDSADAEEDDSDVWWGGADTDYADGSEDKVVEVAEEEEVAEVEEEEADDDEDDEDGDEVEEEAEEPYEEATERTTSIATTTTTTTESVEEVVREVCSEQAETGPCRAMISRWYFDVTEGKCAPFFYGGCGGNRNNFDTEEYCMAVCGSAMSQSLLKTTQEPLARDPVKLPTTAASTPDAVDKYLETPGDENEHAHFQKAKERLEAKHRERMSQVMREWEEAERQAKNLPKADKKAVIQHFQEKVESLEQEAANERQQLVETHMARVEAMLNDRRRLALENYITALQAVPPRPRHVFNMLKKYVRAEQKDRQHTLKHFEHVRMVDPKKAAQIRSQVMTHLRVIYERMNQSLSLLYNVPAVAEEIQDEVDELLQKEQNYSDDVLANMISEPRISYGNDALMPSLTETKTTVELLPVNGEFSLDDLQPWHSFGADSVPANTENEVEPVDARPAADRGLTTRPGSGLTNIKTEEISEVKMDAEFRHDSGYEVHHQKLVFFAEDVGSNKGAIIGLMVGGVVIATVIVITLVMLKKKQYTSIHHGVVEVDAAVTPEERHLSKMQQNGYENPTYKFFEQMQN
pKi: −log10 of the molar value.
Catalogue of pKi values
measured quantity: pKi

| smiles record | target of assay | result |
| --- | --- | --- |
| CN(C)c1ccc(/C=C/c2cnc(OCCO)c(Br)c2)cc1 | Amyloid-beta precursor protein (Homo sapiens, UniProt P05067) | 8.44 |
| CNc1ccc(/C=C/c2cnc(OCCOCCOCCF)c(Br)c2)cc1 | Amyloid-beta precursor protein (Homo sapiens, UniProt P05067) | 8.35 |
| OCCOc1ncc(C=Cc2ccc(O)cc2)cc1Br | Amyloid-beta precursor protein (Homo sapiens, UniProt P05067) | 8.17 |
| CN(C)c1ccc(/C=C/c2cnc(OCCOCCOCCF)c(I)c2)cc1 | Amyloid-beta precursor protein (Homo sapiens, UniProt P05067) | 8.12 |
| CNc1ccc(/C=C/c2cnc(OCCO)c(I)c2)cc1 | Amyloid-beta precursor protein (Homo sapiens, UniProt P05067) | 8.07 |
| CNc1ccc(/C=C/c2cnc(OCCO)c(Br)c2)cc1 | Amyloid-beta precursor protein (Homo sapiens, UniProt P05067) | 8.30 |
| CNc1ccc(/C=C/c2cnc(OCCOCCOCCF)c(I)c2)cc1 | Amyloid-beta precursor protein (Homo sapiens, UniProt P05067) | 8.05 |

====

# Test system: Kidney
# experiment: Biodistribution in ICR mouse kidney at 5 to 10 uCi, iv after 2 hrs
# Assay type: ADME, organism-based
# experimental conditions: in vivo
measured quantity: Drug uptake (% ID/g)

| smiles record | measured quantity | result |
| --- | --- | --- |
| OCCOc1ncc(/C=C/c2ccc(O)cc2)cc1[125I] | Drug uptake | 2.5 |
| CNc1ccc(/C=C/c2cnc(OCCOCCOCCF)c([125I])c2)cc1 | Drug uptake | 1.86 |
| CN(C)c1ccc(/C=C/c2cnc(OCCO)c([125I])c2)cc1 | Drug uptake | 1.48 |
| CN(C)c1ccc(/C=C/c2cnc(OCCOCCOCCF)c([125I])c2)cc1 | Drug uptake | 1.71 |
| CNc1ccc(/C=C/c2cnc(OCCO)c([125I])c2)cc1 | Drug uptake | 1.53 |

====

# System: Zone of skin
# experiment: Biodistribution in ICR mouse skin at 5 to 10 uCi, iv after 1 hr
# Type: ADME, organism-based
# experimental conditions: in vivo
measured quantity: Drug uptake (% ID/g)

| smiles record | measured quantity | result |
| --- | --- | --- |
| CNc1ccc(/C=C/c2cnc(OCCOCCOCCF)c([125I])c2)cc1 | Drug uptake | 2.46 |
| CNc1ccc(/C=C/c2cnc(OCCO)c([125I])c2)cc1 | Drug uptake | 1.29 |
| CN(C)c1ccc(/C=C/c2cnc(OCCO)c([125I])c2)cc1 | Drug uptake | 1.16 |
| CN(C)c1ccc(/C=C/c2cnc(OCCOCCOCCF)c([125I])c2)cc1 | Drug uptake | 1.59 |
| OCCOc1ncc(/C=C/c2ccc(O)cc2)cc1[125I] | Drug uptake | 0.62 |

====

# Test system: Muscle tissue
# experiment: Biodistribution in ICR mouse muscle at 5 to 10 uCi, iv after 2 hrs
# Assay type: ADME, organism-based
# experimental conditions: in vivo
Each entry gets NOT MET if its Drug uptake stays under 0.4 % ID/g, and MET if its Drug uptake is 0.4 % ID/g or above.

| smiles record | target of assay | cat |
| --- | --- | --- |
| CN(C)c1ccc(/C=C/c2cnc(OCCO)c([125I])c2)cc1 | Muscle tissue | NOT MET |
| OCCOc1ncc(/C=C/c2ccc(O)cc2)cc1[125I] | Muscle tissue | NOT MET |
| CN(C)c1ccc(/C=C/c2cnc(OCCOCCOCCF)c([125I])c2)cc1 | Muscle tissue | MET |
| CNc1ccc(/C=C/c2cnc(OCCO)c([125I])c2)cc1 | Muscle tissue | NOT MET |
| CNc1ccc(/C=C/c2cnc(OCCOCCOCCF)c([125I])c2)cc1 | Muscle tissue | MET |
